Biological target: T1, human GIP receptor (human, UniProt P48546 22-466)
T1 construct: whole, on cells; Used as crude membranes of stably transfected CHO cells; also called hGIPR
T1 sequence (looked up): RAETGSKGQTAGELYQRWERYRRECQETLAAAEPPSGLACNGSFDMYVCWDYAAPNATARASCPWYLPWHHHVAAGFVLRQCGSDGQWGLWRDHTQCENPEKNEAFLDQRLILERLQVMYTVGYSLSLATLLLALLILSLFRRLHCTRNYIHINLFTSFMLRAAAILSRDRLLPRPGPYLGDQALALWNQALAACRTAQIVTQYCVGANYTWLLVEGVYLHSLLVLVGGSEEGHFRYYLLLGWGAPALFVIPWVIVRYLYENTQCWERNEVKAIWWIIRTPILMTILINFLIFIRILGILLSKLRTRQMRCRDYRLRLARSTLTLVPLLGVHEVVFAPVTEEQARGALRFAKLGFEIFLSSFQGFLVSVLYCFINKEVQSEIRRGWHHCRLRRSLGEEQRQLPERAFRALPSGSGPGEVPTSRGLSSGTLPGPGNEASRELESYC
Assay: SPA, [125I]-GIP displacement, hGIPR membranes
Numbered stars: 1 amine (or outer) side, 2 acyl side, 3 side chain; on linkers, the order of the positions; unused ones are H or OH. Square brackets hold non-standard residues; d marks the D form. Side chains are listed from the residue outwards. Ends that are not written are not given here. * marks the point of attachment. C20 diacid = O=C(O)CCCCCCCCCCCCCCCCCCC(=O)*; γGlu = O=C(O)[C@H](CCC(=O)[*:2])N[*:1]; Desaminohistidyl = O=C(CCc1c[nH]cn1)*; αMeL = CC(C)C[C@](C)(N)C(=O)O; αMeK = C[C@](N)(CCCCN)C(=O)O; Dab = NCC[C@H](N)C(=O)O; AEEA = NCCOCCOCC(=O)O; Aib = CC(C)(N)C(=O)O
Listing: Ki of selected binders
property measured: Ki (nM)

binder	result units	reported value
YXEGTFTSDYSILLDKKAQXAFIEYLIXGGPSSGAPPPS (Aib2; K17((2-[2-(2-Amino-ethoxy)-ethoxy]-acetyl)2-(γ-Glu)-CO-(CH2)18-CO2H); Aib20; D-Glu28; C-terminal NH2) [Example 83]	nM	0.142
H[Aib]EGTFTSDYSI[αMeL]LDKK([Dab-AEEA-Dab-AEEA-C20 diacid])AQ[αMeK]AFIQYLLA[Aib]GPSSGAPPPS-NH2 [Example 19]	nM	0.0518
YXEGTFTSDYSIXLDXKAQXAFIEYLIEGGPSSGAPPPS (Aib2; αMeL13; Aib16; K17((2-[2-(2-Amino-ethoxy)-ethoxy]-acetyl)2-(γ-Glu)-CO-(CH2)18-CO2H); Aib20; C-terminal NH2) [Example 60]	nM	0.0655
YXEGTXTSDYSIXLDEKAQXAFIEYLIEGGPSSGAPPPS (Aib2; αMeF6; αMeL13; K17((2-[2-(2-Amino-ethoxy)-ethoxy]-acetyl)2-(γ-Glu)-CO-(CH2)18-CO2H); Aib20; C-terminal NH2) [Example 115]	nM	0.0302
HXEGTXTSDYSIXLDEKAQXEFIEYLIEGGPSSGAPPPS (Aib2; αMeF(2F)6; αMeL13; K17((2-[2-(2-Amino-ethoxy)-ethoxy]-acetyl)2-(γ-Glu)-CO-(CH2)18-CO2H); Aib20; C-terminal NH2) [Example 163]	nM	0.116
YXEGTXTSDYSIXLDKKAQXAFIEYLIEAGPSSGAPPPS (Aib2; αMeF6; αMeL13; K17((2-[2-(2-Amino-ethoxy)-ethoxy]-acetyl)2-(γ-Glu)-CO-(CH2)18-CO2H); Aib20; C-terminal NH2) [Example 126]	nM	0.0644
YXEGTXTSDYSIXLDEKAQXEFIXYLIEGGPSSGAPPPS (Aib2; αMeF(2F)6; αMeL13; K17((2-[2-(2-Amino-ethoxy)-ethoxy]-acetyl)2-(γ-Glu)-CO-(CH2)18-CO2H); Aib20; Aad24; C-terminal NH2) [Example 147]	nM	0.0981
[Desaminohistidyl][Aib]EGTFTSDYSILLDKK([AEEA-AEEA-γGlu-C20 diacid])AQ[Aib]AFIEYLIEGGPSSGAPPPS-NH2 (also: reversed amide ψ[NHCO] between residues 1 and 2) [Example 105]	nM	0.119
YXEGTFTSDYSIXLDTKAQXAFIEYLIEGG (Aib2; αMeL13; K17((2-[2-(2-Amino-ethoxy)-ethoxy]-acetyl)2-(γ-Glu)-CO-(CH2)18-CO2H); Aib20; C-terminal NH2) [Example 65]	nM	0.0643
YXEGTFTSDYSIXLDKKAQXAFIEYLIEGG (Aib2; αMeL13; K17((2-[2-(2-Amino-ethoxy)-ethoxy]-acetyl)2-(γ-Glu)-CO-(CH2)18-CO2H); Aib20; C-terminal NH2) [Example 62]	nM	0.0545
YXEGTXTSDYSIXLDEKAQXEFIEYLIEGG (Aib2; αMeF(2F)6; αMeL13; K17((2-[2-(2-Amino-ethoxy)-ethoxy]-acetyl)2-(γ-Glu)-CO-(CH2)18-CO2H); Aib20; C-terminal NH2) [Example 103]	nM	0.0645
YXEGTXTSDXSIXLDKKAQXEFIXYLIEGGPSSGAPPPS (Aib2; αMeF(2F)6; 4Pal10; αMeL13; K17((2-[2-(2-Amino-ethoxy)-ethoxy]-acetyl)-(γ-Glu)-(2-[2-(2-Amino-ethoxy)-ethoxy]-acetyl)-CO-(CH2)18-CO2H); Aib20; D-Glu24; C-terminal NH2) [Example 202]	nM	0.0579
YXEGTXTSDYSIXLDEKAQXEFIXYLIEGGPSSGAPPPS (Aib2; αMeF(2F)6; αMeL13; K17((2-[2-(2-Amino-ethoxy)-ethoxy]-acetyl)2-(γ-Glu)-CO-(CH2)14-CO2H); Aib20; D-Glu24; C-terminal NH2) [Example 208]	nM	0.0537
YXEGTXTSDXSIXLDEKAQXEFIEYLIEGGPSSGAPPPS (Aib2; αMeF(2F)6; 3Pal10; αMeL13; K17((2-[2-(2-Amino-ethoxy)-ethoxy]-acetyl)2-(γ-Glu)-CO-(CH2)18-CO2H); Aib20; C-terminal NH2) [Example 157]	nM	0.0937
YXEGTXTSDASIXLDEKAQXEFIXYLIEGGPSSGAPPPS (Aib2; αMeF(2F)6; αMeL13; K17((2-[2-(2-Amino-ethoxy)-ethoxy]-acetyl)2-(γ-Glu)-CO-(CH2)18-CO2H); Aib20; D-Glu24; C-terminal NH2) [Example 192]	nM	0.118
YXEGTFTSDYSIXLDKKAQXAXIEYLIEGGPSSGAPPPS (Aib2; αMeL13; K17((2-[2-(2-Amino-ethoxy)-ethoxy]-acetyl)2-(γ-Glu)-CO-(CH2)18-CO2H); Aib20; αMeF22; C-terminal NH2) [Example 74]	nM	0.0279
YXEGTXTSDYSIXLDEKAQXEFIVYLIEGGPSSGAPPPS (Aib2; αMeF(2F)6; αMeL13; K17((2-[2-(2-Amino-ethoxy)-ethoxy]-acetyl)2-(γ-Glu)-CO-(CH2)18-CO2H); Aib20; C-terminal NH2) [Example 149]	nM	0.0708
YXEGTFTSDYSIXLDSKAQXAFIEYLIEGGPSSGAPPPS (Aib2; αMeL13; K17((2-[2-(2-Amino-ethoxy)-ethoxy]-acetyl)2-(γ-Glu)-CO-(CH2)18-CO2H); Aib20; C-terminal NH2) [Example 52]	nM	0.0342
XXEGTFTSDYSILLDKKAQXAFIEYLIEGGPSSGAPPPS (D-Tyr1; Aib2; K17((2-[2-(2-Amino-ethoxy)-ethoxy]-acetyl)2-(γ-Glu)-CO-(CH2)18-CO2H); Aib20; C-terminal NH2) [Example 78]	nM	0.163
YXEGTFTSDYSIXLDSKAQXAFIEYLIEGG (Aib2; αMeL13; K17((2-[2-(2-Amino-ethoxy)-ethoxy]-acetyl)2-(γ-Glu)-CO-(CH2)18-CO2H); Aib20; C-terminal NH2) [Example 64]	nM	0.0866
YXEGTXTSDESILLDKKAQXAFIEYLIEGGPSSGAPPPS (Aib2; αMeF6; K17((2-[2-(2-Amino-ethoxy)-ethoxy]-acetyl)2-(γ-Glu)-CO-(CH2)18-CO2H); Aib20; C-terminal NH2) [Example 130]	nM	0.177
YXEGTXTSDYSIXLDKKAQXEFIXYLIEGGPSSGAPPPS (Aib2; αMeF(2F)6; αMeL13; K17((2-[2-(2-Amino-ethoxy)-ethoxy]-acetyl)-(γ-Glu)-(2-[2-(2-Amino-ethoxy)-ethoxy]-acetyl)-CO-(CH2)18-CO2H); Aib20; D-Glu24; C-terminal NH2) [Example 211]	nM	0.0243
YXEGTXTSDLSIXLDEKAQXEFIXYLIEGGPSSGAPPPS (not printed (the compound name of this Example is missing from the table of Examples 6-287)) [Example 183]	nM	0.0869
YXEGTFTSDYSIXLDEKAQXAFIEYLLEGGPSSGAPPPS (Aib2; αMeL13; K17((2-[2-(2-Amino-ethoxy)-ethoxy]-acetyl)2-(γ-Glu)-CO-(CH2)18-CO2H); Aib20; C-terminal NH2) [Example 66]	nM	0.106
